tested on: Escherichia coli; assay: Antibacterial activity against aminoglycoside-resistant Escherichia coli TG1 pSF815 after 12 to 18 hrs; type: functional
OBSERVATION_TYPE: MIC (µg/mL)

- SMILES_REPRESENTATION: "NC[C@@H]1O[C@H](O[C@H]2[C@@H](O)[C@H](O[C@@H]3[C@@H](O)[C@H](N)C[C@H](N)[C@H]3O[C@H]3O[C@H](CN)[C@@H](O)[C@H](O)[C@H]3N)O[C@@H]2CO)[C@H](N)[C@@H](O)[C@@H]1O"
  OBSERVATION_TYPE: "MIC"
  COMPARISON_SYMBOL: "="
  READOUT_NUMBER: 4
- SMILES_REPRESENTATION: "CCCO[C@@H]1[C@@H](O[C@@H]2O[C@H](C)[C@@H](N)[C@H](O)[C@H]2O)[C@H](O[C@H]2O[C@H](CN)[C@@H](O)[C@H](O)[C@H]2N)[C@@H](N)C[C@H]1NC(=O)[C@@H](O)CCN"
  OBSERVATION_TYPE: "MIC"
  COMPARISON_SYMBOL: "≥"
  READOUT_NUMBER: 32
- SMILES_REPRESENTATION: "NCC[C@H](O)C(=O)N[C@@H]1C[C@H](N)[C@@H](O[C@H]2O[C@H](CN)[C@@H](O)[C@H](O)[C@H]2N)[C@H](O[C@@H]2O[C@H](CO)[C@H](O)[C@H]2O)[C@H]1O"
  OBSERVATION_TYPE: "MIC"
  COMPARISON_SYMBOL: "="
  READOUT_NUMBER: 0.5

---

Documented MIC across a set of compounds
tested on: Escherichia coli; experiment: Antibacterial activity against Escherichia coli ATCC 25922 after 12 to 18 hrs; type: functional

- COMPOUND: "NCC[C@H](O)C(=O)N[C@@H]1C[C@H](N)[C@@H](O[C@H]2O[C@H](CN)[C@@H](O)[C@H](O)[C@H]2N)[C@H](O[C@@H]2O[C@H](CO)[C@H](O)[C@H]2O)[C@H]1O [BUTIROSIN A]"
  RESULT_UNIT: "µg/mL"
  MIC: 4
- COMPOUND: "C[C@H]1O[C@@H](O[C@@H]2[C@@H](OCCN)[C@H](NC(=O)[C@@H](O)CCN)C[C@H](N)[C@H]2O[C@H]2O[C@H](CN)[C@@H](O)[C@H](O)[C@H]2N)[C@H](O)[C@@H](O)[C@@H]1N"
  RESULT_UNIT: "µg/mL"
  MIC: 8
- COMPOUND: "NC[C@@H]1O[C@H](O[C@H]2[C@@H](O)[C@H](O[C@@H]3[C@@H](O)[C@H](N)C[C@H](N)[C@H]3O[C@H]3O[C@H](CN)[C@@H](O)[C@H](O)[C@H]3N)O[C@@H]2CO)[C@H](N)[C@@H](O)[C@@H]1O [FRAMYCETIN]"
  RESULT_UNIT: "µg/mL"
  MIC: 4

---

tested on: Escherichia coli; test: Antibacterial activity against Escherichia coli ATCC 25922 after 12 to 18 hrs; type: functional

- MOLECULE: "CCCO[C@@H]1[C@@H](O[C@@H]2O[C@H](C)[C@@H](N)[C@H](O)[C@H]2O)[C@H](O[C@H]2O[C@H](CN)[C@@H](O)[C@H](O)[C@H]2N)[C@@H](N)C[C@H]1NC(=O)[C@@H](O)CCN"
  MIC: "≥ 32 µg/mL"
- MOLECULE: "NC[C@H]1O[C@H](O[C@H]2[C@H](O[C@@H]3O[C@H](CO)[C@@H](O)[C@H]3O)[C@@H](O)[C@H](N)C[C@@H]2N)[C@H](N)[C@@H](O)[C@@H]1O [RIBOSTAMYCIN]"
  MIC: "8 µg/mL"
- MOLECULE: "C[C@H]1O[C@@H](O[C@@H]2[C@@H](O)[C@H](N)C[C@H](N)[C@H]2O[C@H]2O[C@H](CN)[C@@H](O)[C@H](O)[C@H]2N)[C@H](O)[C@@H](O)[C@@H]1N"
  MIC: "8 µg/mL"
- MOLECULE: "C[C@H]1O[C@@H](O[C@@H]2[C@@H](OCCO)[C@H](NC(=O)[C@@H](O)CCN)C[C@H](N)[C@H]2O[C@H]2O[C@H](CN)[C@@H](O)[C@H](O)[C@H]2N)[C@H](O)[C@@H](O)[C@@H]1N"
  MIC: "16 µg/mL"
- MOLECULE: "C[C@H]1O[C@@H](O[C@@H]2[C@@H](O)[C@H](NC(=O)[C@@H](O)CCN)C[C@H](N)[C@H]2O[C@H]2O[C@H](CN)[C@@H](O)[C@H](O)[C@H]2N)[C@H](O)[C@@H](O)[C@@H]1N"
  MIC: "8 µg/mL"
